test system: NCI-H522 lung; assay: NCI tumour cell line growth inhibition, 48 h
measuredParameter: log10(TGI) (log10 of the value in µM)
Heads up, the numbers here are log10 of TGI in µM units.

Item CCN(Cc1ccc(Cl)c(Cl)c1)c1ccc2nc(N)nc(N)c2c1C with NCI-H522 lung - log10(TGI)? 0.26

----------
Each entry below carries its recorded TGI.
test system: PC-3 prostate; assay: NCI tumour cell line growth inhibition, 48 h

Illustrative cases are given below, each with its answer.
OCc1c(-c2cccs2)oc(-c2cccs2)c1CO > 100 µM
Cc1cn(S(=O)(=O)c2ccccc2)c2c(OCc3ccccc3)cc([N+](=O)[O-])cc12 > 100 µM

Now for another entry.
State the recorded TGI for this entry: CC(=O)c1cc2c(Br)cccc2oc1=O > 100 µM
